Entries and their growth
System: NCI-H522 lung
Test: NCI-60 one-dose screen, 48 h (100 = growth as untreated, 0 = no growth, -100 = all killed)
Settings: 10 µM
Compounds without any hit were thinned out: in the full panel of roughly 83,000, 20% have a hit.
Dear colleague, please return just the value in %, with no unit written.

Check out these entries, answers already filled in.
>>> readout_number("CC(C)(C)OOC(=O)/C=C\\C(=O)OOC(C)(C)C")
107
>>> readout_number("Oc1c(Cl)cc(Cl)c2ccccc12.[Cu+2]")
71.2

Prompt: Which value of growth has been reported for O=C(CBr)Nc1ccc(Cl)cc1 in the records?
Response: -67.2

Prompt: // returns reported growth for input COc1ccccc1[As]=[As]c1ccccc1OC (configuration not stated)
Response: -80.6

Prompt: May I ask what growth has been recorded for S=C=NCCc1ccccc1 ?
Response: 44.1

Prompt: I have this molecule here, CCOP(=O)(OCC)/C(C#N)=C/c1ccc(Br)cc1 , and I need its recorded growth.
Response: 89.7

Prompt: Any idea what growth was measured for NC(=O)c1cc([N+](=O)[O-])c(Cl)c([N+](=O)[O-])c1 ?
Response: -4.01

Prompt: Look up growth for this molecule: COC(C(=O)C(O)C(C)O)C1Cc2cc3cc(OC4CC(OC(C)=O)C(OC5CC(O)C(OC)C(C)O5)C(C)O4)cc(O)c3c(O)c2C(=O)C1OC1CC(OC2CC(OC3CC(C)(O)C(OC(=O)C(C)C)C(C)O3)C(O)C(C)O2)C(O)C(C)O1 (configuration not stated)
Response: -60.9

Prompt: Which growth value is on record for CC(=O)[O][Hg][c]1c(C)c(C)cc(C)c1C ?
Response: -96.4

Prompt: I am curious: what growth value has been reported for CC(=O)Nc1c2sscc-2n(C)c1=O ?
Response: -90.8

Prompt: Name the recorded growth for O=[N+]([O-])c1ccc(N2CCOCC2)c2c1no[n+]2[O-] .
Response: -70.5

Prompt: # growth lookup, item CN(C)CC1(N)C(=O)NC(=O)NC1=O
Response: 96.4

----------
Tested on: BT-549 breast
Test: NCI-60 one-dose screen, 48 h
Conditions: 10 µM
The panel holds about 83,000 compounds, 20% with a hit somewhere; the sample as a whole holds those more often. Activity calls are given as the source filed them. How the source made its calls: active means growth percent below 10; inactive means the rest.
Your response should consist of one outcome taken from 1 (yes) = active, 0 (no) = inactive

Solved cases below.
>>> class_name("CC(Cc1ccc2c(c1)OCO2)NN (configuration not stated)")
"0 (no)"
>>> class_name("CC12OOC(c3ccccc31)c1c2ccc2ccccc12 (configuration not stated)")
"1 (yes)"
>>> class_name("C[C@@H]1C[C@@H]([C@H](O)CC2CC(=O)NC(=O)C2)C(=O)[C@@H](C)C1")
"1 (yes)"

Prompt: Write down the call the test reported for this compound. Item: O=C1CCC(=O)N1SC(Cl)(Cl)Cl
Response: 0 (no)

Prompt: # lookup: test call for CCOP(=O)(OCC)C(O)c1ccccc1Cl (configuration not stated)
Response: 0 (no)

Prompt: For CS(=N)(=O)CCC(N)C(=O)O (configuration not stated) , which call appears in the assay record?
Response: 0 (no)

Prompt: Test call, this compound: C#CC1(O)CCC(C(C)(C)C)CC1 (configuration not stated)
Response: 0 (no)

Prompt: Please share the test call associated with COc1ccc2c(ccc3oc([N+](=O)[O-])cc32)c1 .
Response: 1 (yes)

Prompt: I would be grateful if you could indicate the recorded call for CC/C(=C/c1ccc(OC)cc1)[N+](=O)[O-] .
Response: 1 (yes)

Prompt: For O=[N+]([O-])c1cc[n+]([O-])c2ccccc12 , what call appears in the results of this test?
Response: 1 (yes)

Prompt: Check the results log: what was the call for CC(=O)[O][Hg][c]1c(C)c(C)cc(C)c1C ?
Response: 1 (yes)

Prompt: Tell me the recorded outcome of this test for COc1cc2c(cc1OC)C13CCN4CC5=CCOC6CC(=O)N2C1C6C5CC43 (configuration not stated) .
Response: 0 (no)

Prompt: Hello, I am checking results. What call was entered for Cc1cc(C(C)(C)c2ccc(O)c(C)c2)ccc1O ?
Response: 0 (no)

Recorded values, source PubChem BioAssay (NCI).
